# protocol-description: Volume of distribution in Sprague-Dawley rat at 1 mg/kg, iv
# Assay type: ADME, organism-based
# Design: dose 1 mg/kg, route intravenous
# condition-notes: in vivo
measurement-type: Vd
Write the figure, then the unit, nothing else.

What does the record list as Vd for CCN1CCN(c2nc(C)nc3c2nc(-c2ccccc2Cl)n3CC2CCOCC2)CC1.Cl ? 5 L/kg

What value of measured Vd is listed for Cc1nc(N2CCN(C)CC2)c2nc(-c3ccccc3Cl)n(CCS(C)(=O)=O)c2n1.Cl ? 1.9 L/kg

Endpoint output: Vd of Cc1nc(N2CCN(C)CC2)c2nc(-c3ccccc3Cl)n(C3CCOCC3)c2n1.Cl . Value? 6 L/kg

----------
# protocol-description: Ratio of drug level in brain to plasma in rat
# Assay type: ADME
# condition-notes: read-out: BPR
measurement-type: Kp
// response body must contain only the number

Report Kp for Cc1nc(N2CCN(C)CC2)c2nc(-c3ccccc3Cl)n(C3CCOCC3)c2n1.Cl please. 0.9

----------
# protocol-description: Cmax in Sprague-Dawley rat at 1 mg/kg, iv and 1 mg/kg, po
# Assay type: ADME, organism-based
# condition-notes: in vivo
measurement-type: Cmax
Kindly report the value followed by its unit.

// Cmax lookup, key: Cc1nc(N2CCN(C)CC2)c2nc(-c3ccccc3Cl)n(C3CCOCC3)c2n1.Cl 60 ng/mL

Which Cmax is listed for Cc1nc(N2CCN(C)CC2)c2nc(-c3ccccc3Cl)n(CCS(C)(=O)=O)c2n1.Cl ? 76 ng/mL

----------
# protocol-description: Aqueous solubility in simulated GI fluid at pH 6.8
# Format: physicochemical
measurement-type: solubility

Please give the measured solubility for this compound: Cc1nc(N2CCN(C)CC2)c2nc(-c3ccccc3Cl)n(C3CCOCC3)c2n1.Cl > 100 µM

Consider the compound shown here: CCN1CCN(c2nc(C)nc3c2nc(-c2ccccc2Cl)n3C)CC1.Cl What is its recorded solubility? > 100 µM

Would you kindly share the measured solubility for Cc1nc(N2CCN(C)CC2)c2nc(-c3ccccc3Cl)n(CCS(C)(=O)=O)c2n1.Cl ? > 100 µM

----------
Provide the recorded AUC for the entries that follow.
# protocol-description: AUC in Sprague-Dawley rat at 1 mg/kg, iv and 1 mg/kg, po
# Format: ADME, organism-based
# condition-notes: plasma
State the answer as a number, implicitly in ng·h/mL.

# input molecule: Cc1nc(N2CCN(C)CC2)c2nc(-c3ccccc3Cl)n(C3CCOCC3)c2n1.Cl ; wanted: its AUC 265

Given the molecule Cc1nc(N2CCN(C)CC2)c2nc(-c3ccccc3Cl)n(CCS(C)(=O)=O)c2n1.Cl , what is its reported AUC? 312
